Data provenance: patent US20110039758A1

Quick reference for Average OD among some binders
Biological target: GST-PSD95 PDZ domain 3 (human)
Assay: G assay
Please reply with the bare figure in OD and do not write the unit itself.

>  <BINDER>
VDPNSPAAKKKYVSYNNLVI (modifications not checked) [GLUR7 (metabotropic glutamate receptor) PL peptide]

>  <TEST RESULT>
0.82

$$$$
>  <BINDER>
VHKVRNKFKAKCSLCRLYII (modifications not checked) [HPV-E6 #63 PL peptide]

>  <TEST RESULT>
4

$$$$
>  <BINDER>
SSKSKSSEESQTFFGLYKL (modifications not checked) [Fas Ligand PL peptide]

>  <TEST RESULT>
1.07

$$$$

// Average OD lookup, key: TGSALQAWRHTSRQATESTV (modifications not checked) [… peptide]
0.78
